These data points were gathered from ChEMBL document CHEMBL1944596.

target: Phosphatidylinositol 3-kinase catalytic subunit type 3 (Homo sapiens); assay: Inhibition of VPS34 using ATP as substrate
pIC50: −log10 of the molar value.
endpointLabel: pIC50

Exam item: Look up pIC50: Cn1c2c(c3ccc(Cl)c(Cl)c31)C(C#N)C1(CCNCC1)NC2=O (racemic)
Marked response: < 5.04

* * *

Could you please report measured ΔTm for the items listed next?
target: Serine/threonine-protein kinase 33 (Homo sapiens) (UniProt Q9BYT3); assay: Binding affinity to STK33 assessed as change in thermal denaturation at 10 uM by thermal stability shift assay
Sequence (Q9BYT3 whole entry, looked up): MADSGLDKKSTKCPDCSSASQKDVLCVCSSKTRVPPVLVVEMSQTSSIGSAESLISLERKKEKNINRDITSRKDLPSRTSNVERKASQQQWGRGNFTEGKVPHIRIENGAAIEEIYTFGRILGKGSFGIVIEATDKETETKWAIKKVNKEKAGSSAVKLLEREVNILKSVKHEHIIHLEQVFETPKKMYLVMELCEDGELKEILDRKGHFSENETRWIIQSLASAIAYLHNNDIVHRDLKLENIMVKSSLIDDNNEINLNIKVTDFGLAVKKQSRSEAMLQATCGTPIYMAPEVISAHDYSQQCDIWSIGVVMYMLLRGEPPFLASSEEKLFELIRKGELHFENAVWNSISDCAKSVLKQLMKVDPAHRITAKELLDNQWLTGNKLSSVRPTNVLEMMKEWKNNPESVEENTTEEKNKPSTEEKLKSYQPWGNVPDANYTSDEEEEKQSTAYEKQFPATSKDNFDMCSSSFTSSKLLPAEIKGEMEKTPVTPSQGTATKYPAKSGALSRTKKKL
Numbers only, in °C.

Consider the worked cases shown below.
1) Cn1c2c(c3ccc(Cl)c(Cl)c31)C(C#N)C1(CCN(C(=O)OC(C)(C)C)CC1)NC2=O (racemic); 0.3
2) CC1(C)NC(=O)c2[nH]c3c(Cl)c(Cl)ccc3c2C1C#N (stereo unspecified); 1.1
3) CCC1(CC)NC(=O)c2c(c3ccc(Cl)c(Cl)c3n2C)C1C#N (stereo unspecified); 0.6
4) Cn1c2c(Cl)c(Cl)ccc2c2cc(N)[nH]c(=O)c21; 0.4
5) Cn1c2c(c3ccc(Cl)c(Cl)c31)C(C#N)C1(CCCC1)NC2=O (stereo unspecified); 0.2

# evaluate next
Exam item: I'd like to know its ΔTm. The compound in question is Cn1c2c(c3ccc(Cl)c(Cl)c31)C(CN)C(C)(C)NC2=O (racemic)
Marked response: 0.9

* * *

Consider the following compounds; for each one, report its ΔTm.
biological target: Serine/threonine-protein kinase PLK1 (Homo sapiens) (UniProt P53350); assay: Binding affinity to PLK1 assessed as change in thermal denaturation at 10 uM by thermal stability shift assay
Sequence (P53350 whole entry): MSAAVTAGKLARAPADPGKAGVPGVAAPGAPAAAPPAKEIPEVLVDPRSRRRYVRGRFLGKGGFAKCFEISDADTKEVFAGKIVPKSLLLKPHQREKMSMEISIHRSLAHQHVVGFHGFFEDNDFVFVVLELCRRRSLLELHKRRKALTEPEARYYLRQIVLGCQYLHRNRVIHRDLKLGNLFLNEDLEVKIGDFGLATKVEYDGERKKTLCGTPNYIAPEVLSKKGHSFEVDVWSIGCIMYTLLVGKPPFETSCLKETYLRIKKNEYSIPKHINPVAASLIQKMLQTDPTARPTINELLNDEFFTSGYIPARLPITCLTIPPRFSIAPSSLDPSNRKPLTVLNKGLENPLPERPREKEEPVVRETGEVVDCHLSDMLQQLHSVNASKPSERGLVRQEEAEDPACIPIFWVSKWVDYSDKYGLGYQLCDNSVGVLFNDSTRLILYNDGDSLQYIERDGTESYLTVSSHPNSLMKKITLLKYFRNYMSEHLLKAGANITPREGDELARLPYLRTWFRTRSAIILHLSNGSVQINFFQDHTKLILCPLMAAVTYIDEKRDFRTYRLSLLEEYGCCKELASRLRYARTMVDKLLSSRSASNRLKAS
One number for each entry, in °C.

Batch lookup, ΔTm per entry.
1. CC(=O)NCC1c2c(n(C)c3c(Cl)c(Cl)ccc23)C(=O)NC1(C)C (racemic)
2. Cn1c2c(c3ccc(Cl)c(Cl)c31)C(C#N)C1(CCN(C(=O)OC(C)(C)C)CC1)NC2=O (racemic)
3. CC1(C)NC(=O)c2[nH]c3c(Cl)c(Cl)ccc3c2C1C#N (stereo unspecified)
4. Cn1c2c(c3ccc(Cl)c(Cl)c31)C(C#N)C(C)(C)NC2=O (stereo unspecified)
5. Cn1c2c(Cl)c(Cl)ccc2c2cc[nH]c(=O)c21
6. Cn1c2c(c3ccc(Cl)c(Cl)c31)C(C#N)C1(CCOCC1)NC2=O (stereo unspecified)
7. CCC1(CC)NC(=O)c2c(c3ccc(Cl)c(Cl)c3n2C)C1C#N (stereo unspecified)

Marked response:
1: 0.7; 2: 0.5; 3: 4; 4: 4.9; 5: 1.6; 6: 0.8; 7: 0.9

Need ΔTm for each of these compounds.
1. CCN1CCC2(CC1)NC(=O)c1c(c3ccc(Cl)c(Cl)c3n1C)C2C#N (racemic)
2. Cn1c2c(c3ccc(Cl)c(Cl)c31)C(CN)C(C)(C)NC2=O (racemic)
3. Cn1c2c(c3ccc(Cl)c(Cl)c31)C(C#N)C1(CCCC1)NC2=O (stereo unspecified)
4. Cn1c2c(c3ccc(Cl)c(Cl)c31)C(C#N)C1(CCNCC1)NC2=O (racemic)
5. Cn1c2c(Cl)c(Cl)ccc2c2cn[nH]c(=O)c21
6. Cn1c2c(c3ccccc31)C(C#N)C(C)(C)NC2=O (stereo unspecified)
7. Cn1c2c(Cl)c(Cl)ccc2c2cc(N)[nH]c(=O)c21

Marked response:
1: 0.4; 2: -0.6; 3: 1.3; 4: 1.4; 5: 3.1; 6: 3.2; 7: 1.4

# return ΔTm for each item in the list
1. CN1CCC2(CC1)NC(=O)c1c(c3ccc(Cl)c(Cl)c3n1C)C2C#N (racemic)
2. N#CC1c2c([nH]c3c(Cl)c(Cl)ccc23)C(=O)NC12CCCCC2 (racemic)

Marked response:
[0.6, 0.3]

* * *

molecular target: Phosphatidylinositol 4,5-bisphosphate 3-kinase catalytic subunit beta isoform (Homo sapiens, UniProt P42338); assay: Inhibition of PI3Kbeta using ATP as substrate
Sequence (P42338 whole entry, canonical isoform): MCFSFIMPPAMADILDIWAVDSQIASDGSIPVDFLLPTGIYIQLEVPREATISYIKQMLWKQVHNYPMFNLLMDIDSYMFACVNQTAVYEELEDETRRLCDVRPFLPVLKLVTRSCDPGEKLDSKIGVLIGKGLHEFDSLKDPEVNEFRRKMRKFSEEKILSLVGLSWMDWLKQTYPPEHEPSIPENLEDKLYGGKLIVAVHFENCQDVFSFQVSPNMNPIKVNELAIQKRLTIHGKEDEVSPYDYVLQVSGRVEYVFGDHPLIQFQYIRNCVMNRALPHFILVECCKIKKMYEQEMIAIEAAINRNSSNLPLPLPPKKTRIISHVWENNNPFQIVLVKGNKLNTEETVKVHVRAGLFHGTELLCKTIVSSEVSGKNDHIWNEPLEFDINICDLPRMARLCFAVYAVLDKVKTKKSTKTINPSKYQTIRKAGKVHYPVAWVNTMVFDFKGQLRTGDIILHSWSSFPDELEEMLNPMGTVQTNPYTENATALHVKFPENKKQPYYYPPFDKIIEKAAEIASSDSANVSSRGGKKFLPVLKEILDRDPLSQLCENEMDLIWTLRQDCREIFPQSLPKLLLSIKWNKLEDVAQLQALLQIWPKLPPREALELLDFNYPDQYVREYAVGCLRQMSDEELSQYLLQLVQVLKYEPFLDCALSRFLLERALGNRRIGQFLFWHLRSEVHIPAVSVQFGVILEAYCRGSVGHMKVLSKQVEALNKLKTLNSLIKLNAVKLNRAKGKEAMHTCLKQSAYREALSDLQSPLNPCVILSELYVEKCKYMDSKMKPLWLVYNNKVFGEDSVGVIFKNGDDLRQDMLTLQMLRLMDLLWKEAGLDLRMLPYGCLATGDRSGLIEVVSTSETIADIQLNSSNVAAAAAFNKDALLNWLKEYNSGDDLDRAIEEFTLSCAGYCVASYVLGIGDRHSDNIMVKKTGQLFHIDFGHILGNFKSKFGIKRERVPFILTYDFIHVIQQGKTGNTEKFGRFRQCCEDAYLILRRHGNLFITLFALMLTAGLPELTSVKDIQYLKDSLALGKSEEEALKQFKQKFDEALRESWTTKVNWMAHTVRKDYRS
endpointLabel: pIC50
Give bare numbers, as −log10 of the molar value.

Exam item: Fill in: pIC50 of Cn1c2c(c3ccc(Cl)c(Cl)c31)C(C#N)C1(CCNCC1)NC2=O (racemic) is ___
Marked response: 5.07

* * *

target: Myosin light chain kinase family member 4 (Homo sapiens) (UniProt Q86YV6); assay: Binding affinity to SGK085 assessed as change in thermal denaturation at 10 uM by thermal stability shift assay
Sequence (Q86YV6 whole entry): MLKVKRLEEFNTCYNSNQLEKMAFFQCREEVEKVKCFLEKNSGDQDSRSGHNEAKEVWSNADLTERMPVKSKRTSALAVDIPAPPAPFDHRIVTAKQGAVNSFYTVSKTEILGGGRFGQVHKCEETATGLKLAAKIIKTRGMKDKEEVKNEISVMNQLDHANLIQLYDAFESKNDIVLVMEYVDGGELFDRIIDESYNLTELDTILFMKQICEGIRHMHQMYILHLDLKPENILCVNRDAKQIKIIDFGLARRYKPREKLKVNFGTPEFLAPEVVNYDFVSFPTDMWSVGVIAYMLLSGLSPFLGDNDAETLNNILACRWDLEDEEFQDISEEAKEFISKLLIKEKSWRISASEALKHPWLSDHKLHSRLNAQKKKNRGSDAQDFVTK
endpointLabel: ΔTm (°C)
Give bare numbers, in °C.

1) Cn1c2c(c3ccc(Cl)c(Cl)c31)C(C#N)C1(CCCC1)NC2=O (configuration not stated); 0.1
2) Cn1c2c(c3ccc(Cl)c(Cl)c31)C(C#N)C1(CCN(C(=O)OC(C)(C)C)CC1)NC2=O (racemic); 0
3) CCN1CCC2(CC1)NC(=O)c1c(c3ccc(Cl)c(Cl)c3n1C)C2C#N (racemic); 0
4) Cn1c2c(Cl)c(Cl)ccc2c2cc(N)[nH]c(=O)c21; 2.9

For every item below, please supply its ΔTm.
1. CC1(C)NC(=O)c2[nH]c3c(Cl)c(Cl)ccc3c2C1C#N (configuration not stated)
2. CCC1(CC)NC(=O)c2c(c3ccc(Cl)c(Cl)c3n2C)C1C#N (configuration not stated)
3. Cn1c2c(Cl)c(Cl)ccc2c2cn[nH]c(=O)c21

Marked response:
1: 3.1; 2: 0.4; 3: 5.5

* * *

target: Glycogen synthase kinase-3 beta (Homo sapiens) (UniProt P49841); experiment: Binding affinity to GSK3-beta assessed as change in thermal denaturation at 10 uM by thermal stability shift assay
Sequence (P49841 whole entry, looked up): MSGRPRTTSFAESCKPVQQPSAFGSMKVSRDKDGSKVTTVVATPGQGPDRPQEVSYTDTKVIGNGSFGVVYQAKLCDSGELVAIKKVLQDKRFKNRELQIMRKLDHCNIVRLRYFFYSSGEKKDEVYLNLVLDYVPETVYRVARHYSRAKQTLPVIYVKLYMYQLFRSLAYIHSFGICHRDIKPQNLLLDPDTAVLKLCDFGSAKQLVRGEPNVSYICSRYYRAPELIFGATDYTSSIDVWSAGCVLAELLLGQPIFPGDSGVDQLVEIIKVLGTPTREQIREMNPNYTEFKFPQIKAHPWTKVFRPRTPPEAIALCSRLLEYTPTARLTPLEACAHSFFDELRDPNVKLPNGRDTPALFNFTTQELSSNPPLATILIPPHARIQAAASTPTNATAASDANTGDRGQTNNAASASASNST
Mark MET only when ΔTm stays strictly below 2 °C. Values equal to the cut-off are NOT MET.

Example entries begin here.
1) Cn1c2c(Cl)c(Cl)ccc2c2cc(N)[nH]c(=O)c21; NOT MET
2) Cn1c2c(c3ccc(Cl)c(Cl)c31)C(CN)C(C)(C)NC2=O (racemic); MET
3) Cn1c2c(c3ccccc31)C(C#N)C(C)(C)NC2=O (stereo unspecified); MET
4) Cn1c2c(c3ccc(Cl)c(Cl)c31)C(C#N)C1(CCOCC1)NC2=O (stereo unspecified); NOT MET
5) CC1(C)NC(=O)c2[nH]c3c(Cl)c(Cl)ccc3c2C1C#N (stereo unspecified); NOT MET

Attention now turns to another entry.
Exam item: Does this molecule meet the criterion ΔTm < 2 °C? Cn1c2c(Cl)c(Cl)ccc2c2cc[nH]c(=O)c21
Marked response: MET

* * *

target: BMP-2-inducible protein kinase (Homo sapiens) (UniProt Q9NSY1); experiment: Binding affinity to BIKE assessed as change in thermal denaturation at 10 uM by thermal stability shift assay
Sequence (Q9NSY1 whole entry, looked up): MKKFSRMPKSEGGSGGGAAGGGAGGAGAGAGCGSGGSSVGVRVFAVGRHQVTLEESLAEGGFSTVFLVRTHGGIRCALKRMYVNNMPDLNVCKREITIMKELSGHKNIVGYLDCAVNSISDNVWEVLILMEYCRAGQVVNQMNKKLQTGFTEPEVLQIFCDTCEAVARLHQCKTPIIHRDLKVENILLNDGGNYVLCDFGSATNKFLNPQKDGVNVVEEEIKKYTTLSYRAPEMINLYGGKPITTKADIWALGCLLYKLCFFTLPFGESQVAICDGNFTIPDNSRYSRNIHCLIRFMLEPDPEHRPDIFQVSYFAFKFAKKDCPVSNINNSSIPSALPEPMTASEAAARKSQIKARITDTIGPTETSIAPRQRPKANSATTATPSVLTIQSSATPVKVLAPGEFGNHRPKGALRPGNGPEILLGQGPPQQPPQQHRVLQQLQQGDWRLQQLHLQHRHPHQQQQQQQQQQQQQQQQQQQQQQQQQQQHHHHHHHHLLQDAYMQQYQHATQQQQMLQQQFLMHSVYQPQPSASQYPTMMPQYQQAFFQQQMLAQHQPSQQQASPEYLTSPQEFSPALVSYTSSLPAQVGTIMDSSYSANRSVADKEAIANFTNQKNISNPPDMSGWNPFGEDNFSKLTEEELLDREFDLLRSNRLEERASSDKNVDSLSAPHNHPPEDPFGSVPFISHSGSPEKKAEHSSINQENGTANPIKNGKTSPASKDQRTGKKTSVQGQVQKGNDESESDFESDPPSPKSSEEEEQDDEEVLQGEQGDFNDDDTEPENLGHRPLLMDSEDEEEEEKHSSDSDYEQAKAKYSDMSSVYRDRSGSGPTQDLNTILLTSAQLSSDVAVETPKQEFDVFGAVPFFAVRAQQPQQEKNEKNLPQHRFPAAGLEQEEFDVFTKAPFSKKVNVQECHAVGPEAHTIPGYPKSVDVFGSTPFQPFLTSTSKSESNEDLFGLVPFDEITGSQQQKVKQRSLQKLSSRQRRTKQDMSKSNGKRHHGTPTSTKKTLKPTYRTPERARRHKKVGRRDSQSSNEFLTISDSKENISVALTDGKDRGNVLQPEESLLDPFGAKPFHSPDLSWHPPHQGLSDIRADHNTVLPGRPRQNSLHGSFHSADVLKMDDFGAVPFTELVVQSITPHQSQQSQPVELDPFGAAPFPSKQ
Please respond with MET when measured ΔTm is strictly beneath 1 °C, and with NOT MET in all other cases.

// known answers, use as guide
1) Cn1c2c(c3ccc(Cl)c(Cl)c31)C(C#N)C1(CCN(C(=O)OC(C)(C)C)CC1)NC2=O (racemic); MET
2) CCN1CCC2(CC1)NC(=O)c1c(c3ccc(Cl)c(Cl)c3n1C)C2C#N (racemic); MET
3) CC(=O)NCC1c2c(n(C)c3c(Cl)c(Cl)ccc23)C(=O)NC1(C)C (racemic); MET

Exam item: Would you kindly verify if ΔTm of Cn1c2c(Cl)c(Cl)ccc2c2cc[nH]c(=O)c21 is strictly less than 1 °C?
Marked response: NOT MET

Exam item: Please let me know if CC1(C)NC(=O)c2[nH]c3c(Cl)c(Cl)ccc3c2C1C#N (stereo not given) shows ΔTm below 1 °C.
Marked response: NOT MET

Exam item: Dear reviewer, please state whether CCC1(CC)NC(=O)c2c(c3ccc(Cl)c(Cl)c3n2C)C1C#N (stereo not given) has ΔTm strictly beneath 1 °C.
Marked response: NOT MET

Exam item: Is ΔTm strictly under 1 °C for the entry Cn1c2c(c3ccc(Cl)c(Cl)c31)C(C#N)C(C)(C)NC2=O (stereo not given) ?
Marked response: NOT MET

Exam item: Is ΔTm strictly under 1 °C for the entry Cn1c2c(c3ccc(Cl)c(Cl)c31)C(C#N)C1(CCOCC1)NC2=O (stereo not given) ?
Marked response: NOT MET

Exam item: Below 1 °C on ΔTm? Entry Cn1c2c(Cl)c(Cl)ccc2c2cn[nH]c(=O)c21
Marked response: NOT MET

Exam item: Just wondering, is ΔTm of Cn1c2c(c3ccc(Cl)c(Cl)c31)C(C#N)C1(CCCC1)NC2=O (stereo not given) below 1 °C?
Marked response: NOT MET

* * *

target: Serine/threonine-protein kinase haspin (Homo sapiens); test: Binding affinity to Haspin assessed as change in thermal denaturation at 10 uM by thermal stability shift assay
endpointLabel: ΔTm
Respond with the figure and its unit, in that order.

1) Cn1c2c(c3ccc(Cl)c(Cl)c31)C(C#N)C1(CCNCC1)NC2=O (racemic); 5.6 °C
2) Cn1c2c(c3ccc(Cl)c(Cl)c31)C(C#N)C(C)(C)NC2=O (stereo unspecified); 0.9 °C
3) Cn1c2c(c3ccc(Cl)c(Cl)c31)C(C#N)C1(CCOCC1)NC2=O (stereo unspecified); 1.1 °C
4) Cn1c2c(Cl)c(Cl)ccc2c2cc(N)[nH]c(=O)c21; 2.7 °C
5) CCC1(CC)NC(=O)c2c(c3ccc(Cl)c(Cl)c3n2C)C1C#N (stereo unspecified); 0.4 °C

Then there is this compound:
Exam item: So what's the measured ΔTm for this one? Cn1c2c(Cl)c(Cl)ccc2c2cc[nH]c(=O)c21
Marked response: 3.4 °C
